# studyTarget: Epidermal growth factor receptor (Homo sapiens, UniProt P00533, L858R/T790M)
# Sequence (P00533 25-1210 T790M/L858R limits assumed): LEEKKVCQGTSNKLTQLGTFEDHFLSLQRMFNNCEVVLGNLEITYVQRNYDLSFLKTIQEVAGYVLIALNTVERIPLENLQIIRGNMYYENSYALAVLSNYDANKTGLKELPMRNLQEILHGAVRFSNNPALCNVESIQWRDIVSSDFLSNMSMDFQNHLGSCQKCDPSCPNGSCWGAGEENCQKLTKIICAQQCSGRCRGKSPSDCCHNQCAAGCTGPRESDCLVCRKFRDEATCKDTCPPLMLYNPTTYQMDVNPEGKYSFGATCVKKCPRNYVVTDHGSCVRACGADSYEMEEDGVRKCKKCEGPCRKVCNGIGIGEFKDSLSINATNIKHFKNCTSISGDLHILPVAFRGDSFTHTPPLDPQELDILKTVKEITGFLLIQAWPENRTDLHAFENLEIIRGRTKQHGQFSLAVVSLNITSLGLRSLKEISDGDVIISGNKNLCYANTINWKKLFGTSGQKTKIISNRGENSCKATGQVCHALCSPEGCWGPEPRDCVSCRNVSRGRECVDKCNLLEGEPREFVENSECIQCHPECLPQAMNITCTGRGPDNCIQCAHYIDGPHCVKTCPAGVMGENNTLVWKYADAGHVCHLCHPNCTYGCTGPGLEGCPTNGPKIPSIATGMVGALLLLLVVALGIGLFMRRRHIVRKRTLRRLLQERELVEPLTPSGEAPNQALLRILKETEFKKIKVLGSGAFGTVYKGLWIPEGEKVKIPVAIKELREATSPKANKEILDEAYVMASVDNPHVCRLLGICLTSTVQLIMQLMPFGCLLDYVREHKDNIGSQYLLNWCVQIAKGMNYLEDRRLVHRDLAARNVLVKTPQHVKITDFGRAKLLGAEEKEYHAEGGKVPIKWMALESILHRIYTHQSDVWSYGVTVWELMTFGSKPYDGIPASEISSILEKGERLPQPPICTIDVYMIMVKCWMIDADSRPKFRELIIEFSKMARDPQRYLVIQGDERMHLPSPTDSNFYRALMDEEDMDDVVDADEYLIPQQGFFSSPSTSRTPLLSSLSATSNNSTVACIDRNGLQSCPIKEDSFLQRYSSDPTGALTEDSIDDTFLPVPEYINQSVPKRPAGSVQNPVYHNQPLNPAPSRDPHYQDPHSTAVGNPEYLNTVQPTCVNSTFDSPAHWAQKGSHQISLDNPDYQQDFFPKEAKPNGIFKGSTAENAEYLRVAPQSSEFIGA
# assayComment: Inhibition of EGF-induced EGFR L858R/T790M mutant-mediated ERK phosphorylation in human […] cells after 1 hr by immunoblotting method
# Type: cell-based
outcomeMeasure: EC50 (nM)
Quick note: give the figure in nM, leave out the unit.

Problem: Need EC50, item C=CC(=O)Nc1cccc(Nc2cc(Nc3cccc(Br)c3)ncn2)c1
Solution: 172

* * *

# studyTarget: Epidermal growth factor receptor (Homo sapiens, UniProt P00533, L858R/T790M)
# assayComment: Inhibition of EGFR L858R/T790M mutant (unknown origin) using Y12-Sox peptide as substrate preincubated for 30 mins by fluorescence assay
outcomeMeasure: IC50 (nM)
Reply numerically in nM, unit not repeated.

Problem: So what's the measured IC50 for this one? C=CC(=O)Nc1cccc(Nc2cc(Nc3cccc(Br)c3)ncn2)c1
Solution: 5.4
